Parameter IC50: see the listing below.
Test system: hedgehog signaling pathway
Assay: Gli-Luc Reporter Assay for Hh Pathway Inhibition (TMHh-12 cells, pTA-8×Gli-Luc reporter)
Assay type: cell-based, Mouse
Conditions: Mus musculus, TMHh12, enzymatic and cellular assays for the inhibition of hedgehog signaling pathways; read-out: IC50 Ranges

Some compounds with recorded IC50:
- Compound: "Cc1ccc(-c2cc(Nc3cccc4c3CCN(CC(C)(C)F)C4)ccc2C)nc1 [Compound 200]"
  System Tested: "hedgehog signaling pathway"
  IC50: "0.001 to 1 nM"
- Compound: "Cc1ccc(Nc2cccc3c2CCN(S(C)(=O)=O)C3)cc1-c1ncccc1F [Compound 227]"
  System Tested: "hedgehog signaling pathway"
  IC50: "0.001 to 1 nM"
- Compound: "Cc1cnc(-c2cc(Nc3cccc4c3CCN(CCS(C)(=O)=O)C4)ccc2C)nc1 [Compound 263]"
  System Tested: "hedgehog signaling pathway"
  IC50: "100 to 1000 nM"
- Compound: "Cc1ccc(Nc2cccc3c2CCN(S(C)(=O)=O)C3)cc1-c1ncc(F)cc1F [Compound 272]"
  System Tested: "hedgehog signaling pathway"
  IC50: "1 to 10 nM"
- Compound: "O=C([C@@H](O)CO)N1CCc2c(cccc2Nc2ccc(Cl)c(-c3nc(-c4ccccc4)c[nH]3)c2)C1 [Compound 27]"
  System Tested: "hedgehog signaling pathway"
  IC50: "0.001 to 1 nM"

Data request, read-out IC50, for COc1cnc(-c2cc(Nc3cccc4c3CCN(S(C)(=O)=O)C4)ccc2C)nc1 [Compound 176]
10 to 100 nM

Thanks! And Cc1ccc(Nc2cccc3c2CCN(S(C)(=O)=O)C3)cc1-c1ccc(Cn2cccn2)cc1 [Compound 118] ?
100 to 1000 nM

Thanks! And Cc1ccc(Nc2cccc3c2CCN(CCS(C)(=O)=O)C3)cc1-c1ccc(C(F)(F)F)cn1 [Compound 259] ?
1 to 10 nM

Thanks! And Cc1ccc(-c2nc(Nc3cccc4c3CCN(C3CS(=O)(=O)C3)C4)ccc2C)nc1 [Compound 285] ?
10 to 100 nM

Thanks! And Cc1ccc(Nc2cccc3c2CCN(S(C)(=O)=O)C3)cc1C(=O)Nc1ccc(OC(F)(F)F)cc1 [Compound 187] ?
1 to 10 nM

Thanks! And Cc1ccc(-c2cc(Nc3cccc4c3CCN([C@H]3CCS(=O)(=O)C3)C4)ccc2C)nc1 [Compound 280] ?
0.001 to 1 nM

Thanks! And O=C(NCCO)N1CCc2c(cccc2Nc2ccc(Cl)c(-c3ncc(-c4ccccc4)[nH]3)c2)C1 [Compound 42] ?
0.001 to 1 nM

Thanks! And O=S1(=O)CCC(N2CCc3c(cccc3Nc3ccc(Cl)c(-c4ncc(-c5ccccc5)[nH]4)c3)C2)CC1 [Compound 3] ?
0.001 to 1 nM

Thanks! And CC(C(=O)O)N1CCc2c(Nc3ccc(Cl)c(-c4nc(-c5ccccc5)c[nH]4)c3)cccc2C1=O (stereo not shown) [Compound 77] ?
100 to 1000 nM

Thanks! And Cc1ccc(Nc2cccc3c2CCN(S(C)(=O)=O)C3)cc1-c1ccc(C#N)nn1 [Compound 207] ?
10 to 100 nM

Thanks! And Cc1ccc(Nc2cccc3c2CCN(S(C)(=O)=O)C3)cc1-c1ccc(CNCCO)cc1 [Compound 158] ?
100 to 1000 nM

###

System: hedgehog signaling pathway
Assay: Gli-Luc Reporter Assay for Hh Pathway Inhibition (TMHh-12 cells, pTA-8×Gli-Luc reporter)
Assay type: cell-based, Mouse
Conditions: Mus musculus, TMHh12, enzymatic and cellular assays for the inhibition of hedgehog signaling pathways; read-out: IC50 Ranges
Measured Attribute: IC50

Some compounds with recorded IC50:
- Compound: "OC[C@H](O)CN1CCc2c(cccc2Nc2ccc(Cl)c(-c3ncc(-c4ccccc4)[nH]3)c2)C1 [Compound 18]"
  System Tested: "hedgehog signaling pathway"
  IC50: "0.001 to 1 nM"
- Compound: "Clc1ccc(Nc2cccc3c2CCN(CC2CCOCC2)C3)cc1-c1ncc(-c2ccccc2)[nH]1 [Compound 39]"
  System Tested: "hedgehog signaling pathway"
  IC50: "0.001 to 1 nM"
- Compound: "Cc1ccc(Nc2cccc3c2CCN(S(C)(=O)=O)C3)cc1OCc1ccccn1 [Compound 215]"
  System Tested: "hedgehog signaling pathway"
  IC50: "10 to 100 nM"

Data request, read-out IC50, for Cc1ccc(-c2cc(Nc3ncnc4c3CCN(S(=O)(=O)C(C)C)C4)ccc2C)nc1 [Compound 292]
1 to 10 nM

Thanks! And Cc1ncc(Nc2cccc3c2CCN(S(C)(=O)=O)C3)cc1-c1nc2ccccc2[nH]1 [Compound 111] ?
1 to 10 nM

Thanks! And CCS(=O)(=O)CCN1CCc2c(cccc2Nc2ccc(C)c(-c3ccc(C)cn3)c2)C1 [Compound 261] ?
0.001 to 1 nM

Thanks! And Cc1ccc(Nc2ncnc3c2CCN(S(C)(=O)=O)C3)cc1-c1cc2ccccc2cn1 [Compound 307] ?
0.001 to 1 nM

Thanks! And Cc1ccc(Nc2cccc3c2CCN(S(C)(=O)=O)C3)cc1-c1ccc(C(=O)O)cc1 [Compound 144] ?
1000 to 10000 nM

###

Parameter IC50: see the listing below.
Tested on: hedgehog signaling pathway
Experiment: Gli-Luc Reporter Assay for Hh Pathway Inhibition (TMHh-12 cells, pTA-8×Gli-Luc reporter)
Assay type: cell-based, Mouse
Details: Mus musculus, TMHh12, enzymatic and cellular assays for the inhibition of hedgehog signaling pathways; read-out: IC50 Ranges

Some compounds with recorded IC50:
- Compound: "C[S+]([O-])CC(=O)N1CCc2c(cccc2Nc2ccc(Cl)c(-c3ncc(-c4ccccc4)[nH]3)c2)C1 (stereo not shown) [Compound 19]"
  System Tested: "hedgehog signaling pathway"
  IC50: "0.001 to 1 nM"
- Compound: "Cc1ccc(Nc2cccc3c2CCN(S(C)(=O)=O)C3)cc1-c1nc2ccccc2o1 [Compound 105]"
  System Tested: "hedgehog signaling pathway"
  IC50: "1 to 10 nM"
- Compound: "C[C@@H](C(=O)O)N1CCc2c(cccc2Nc2ccc(Cl)c(-c3nc(-c4ccccc4)c[nH]3)c2)C1 [Compound 79]"
  System Tested: "hedgehog signaling pathway"
  IC50: "1 to 10 nM"
- Compound: "O=C1c2cccc(Nc3ccc(Cl)c(-c4ncc(-c5ccccc5)[nH]4)c3)c2CCN1C1(CO)CC1 [Compound 88]"
  System Tested: "hedgehog signaling pathway"
  IC50: "0.001 to 1 nM"
- Compound: "CS(=O)(=O)CC(=O)N1CCc2c(cccc2Nc2ccc(Cl)c(-c3ncc(-c4ccccc4)[nH]3)c2)C1 [Compound 7]"
  System Tested: "hedgehog signaling pathway"
  IC50: "0.001 to 1 nM"
- Compound: "CCOc1ccc(-c2nc(Nc3cccc4c3CCN(C3CS(=O)(=O)C3)C4)ccc2C)nn1 [Compound 329]"
  System Tested: "hedgehog signaling pathway"
  IC50: "10 to 100 nM"
- Compound: "COc1ccc(-c2nc(Nc3cccc4c3CCN(S(=O)(=O)C(C)C)C4)ccc2C)nn1 [Compound 319]"
  System Tested: "hedgehog signaling pathway"
  IC50: "1 to 10 nM"
- Compound: "Cc1ccc(Nc2cccc3c2CCN(CC(F)(F)CO)C3)cc1-c1nc2ccccc2[nH]1 [Compound 85]"
  System Tested: "hedgehog signaling pathway"
  IC50: "0.001 to 1 nM"

Data request, read-out IC50, for Cc1ccc(Nc2cccc3c2CCN(CCC(F)(F)F)C3)cc1-c1ccc(F)cn1 [Compound 252]
0.001 to 1 nM

Thanks! And Cc1ccc(Nc2cccc3c2CCN(S(C)(=O)=O)C3)cc1-c1cccc(C#N)c1 [Compound 119] ?
10 to 100 nM

Thanks! And COc1cnc(-c2cc(Nc3cccc4c3CCN(S(C)(=O)=O)C4)ccc2C)cn1 [Compound 190] ?
1 to 10 nM

Thanks! And O=C1c2cccc(Nc3ccc(Cl)c(-c4ncc(-c5ccccc5)[nH]4)c3)c2CCN1C[C@H](O)CO [Compound 35] ?
1 to 10 nM

Thanks! And CC1(C(=O)N2CCc3c(cccc3Nc3ccc(Cl)c(-c4ncc(-c5ccccc5)[nH]4)c3)C2)CC1 [Compound 73] ?
0.001 to 1 nM

###

Parameter IC50: see the listing below.
System: hedgehog signaling pathway
Assay: Gli-Luc Reporter Assay for Hh Pathway Inhibition (TMHh-12 cells, pTA-8×Gli-Luc reporter)
Format: cell-based, Mouse
Conditions: Mus musculus, TMHh12, enzymatic and cellular assays for the inhibition of hedgehog signaling pathways; read-out: IC50 Ranges

- Compound: "Cc1ccc(Nc2cccc3c2CCN(S(C)(=O)=O)C3)cc1-c1ncc(F)cn1"
  System Tested: "hedgehog signaling pathway"
  IC50: "1 to 10 nM"
- Compound: "Cc1cc(C#N)ccc1-c1cccc(Nc2cccc3c2CCN(S(C)(=O)=O)C3)c1"
  System Tested: "hedgehog signaling pathway"
  IC50: "100 to 1000 nM"

# ---- query compound ----
Data request, read-out IC50, for Clc1ccc(Nc2cccc3c2CCN(CC2CCCCC2)C3)cc1-c1ncc(-c2ccccc2)[nH]1
1 to 10 nM
